Hey, just so you know, these numbers are from the RNAGym collection of RNA variant scans (doi:10.1073/pnas.2313332121).

Listed variants paired with reported polymerase ribozyme fitness (log ratio)
B1: TPR t1 (parent)
chain: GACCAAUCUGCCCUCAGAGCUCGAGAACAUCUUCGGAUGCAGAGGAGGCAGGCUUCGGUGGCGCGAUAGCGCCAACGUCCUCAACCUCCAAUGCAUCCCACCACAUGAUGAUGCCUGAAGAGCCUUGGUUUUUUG

Variants of: B1
measurement description: polymerase ribozyme fitness, log enrichment relative to wild type (log ratio); higher = more active; in vitro selection for triplet polymerase activity
measure name: polymerase ribozyme fitness (log ratio)

[
  {
    "construct sequence": "GACCAAUCUGCCCUCAGAGCUCGAGAACAUCUUCGGAUGCAGAGGAGGCAGGCUUCGGUGGCGCGAUAGAGCCAACGUCCUCAACCUCCGAUGCAUCCCACCACAUGAUGAUGCCUGAAGAGCCUUGGUUUUUUG",
    "measure name": "polymerase ribozyme fitness (log ratio)",
    "endpoint result": -1.9
  },
  {
    "construct sequence": "GACCAAUAUGCCCUCAGAGCUCGAGAACAUCUUCGGAUGCAGCGGAGGCAGGCUUCAGUGGCGCGAUAGCGGCAACGUCCUCAACCUCCAAUGCACCCCACCGCAUGGGGAUGCCUGAAGAGCCUUGGUUUUUUG",
    "measure name": "polymerase ribozyme fitness (log ratio)",
    "endpoint result": -5.5
  },
  {
    "construct sequence": "GACCAAUCUGCCCUCAGAGCUCGAGAACAUCUUCGGAUGAAGAGGAGACAGGCUUCGGUGGCGCGAUAGCGCCAACGUCCUCAACAUCCAAUGCAUCCCACCACAUGAUGAUGCCUGAAGAGCCUUGGUUUUUUG",
    "measure name": "polymerase ribozyme fitness (log ratio)",
    "endpoint result": -2.18
  },
  {
    "construct sequence": "GACUAAUCUGCCCUCAGAGCUCGAGAACAUCUUCGGAUGCAGAGGAGGCAGGCUUCGGUGGCGCGAUAGCGCCAACGUCCUCAACCUCCAAAGCAUCCCACCACAUGAUGAUGCCUGAAGAGCCUUGGUUUUUUG",
    "measure name": "polymerase ribozyme fitness (log ratio)",
    "endpoint result": -4.01
  },
  {
    "construct sequence": "GACCAAUCUGCCCUCGGAGCUAGAGAACAUCUUCGGAUGCAGAGGAUUCAGGCUUCGGUGGCGUGAUAGCGCCAACGUCCUCAACCUCCAAUGCAUCCCACCACAUGAUGAUGCCUGAAGAGGCUUGGUUUUUUG",
    "measure name": "polymerase ribozyme fitness (log ratio)",
    "endpoint result": -6.67
  },
  {
    "construct sequence": "GACCAAUCUGCCCUGAGUGCUCGAGAACAUCUUCGGAUGCAGAGGAGGCAGGCUUCGGUGGCGCGAUAGCGCCAACGUCCUCAACCUCCAAUGCAUCCCACCACAUGAUGAUGCCUGAAGAGCCUUGGUUUUUUG",
    "measure name": "polymerase ribozyme fitness (log ratio)",
    "endpoint result": -3.36
  },
  {
    "construct sequence": "GACCUAUCUGCCCUCAGAGCUCGAGAACAUCUUCGGAUGCAGAGGAGGCAGGCUUCGGUGGCGGGAUAGCGCCAACGUCCUCAACCUGCAAUGCAUCCCACCAAAUGAUGAUGCCUGAAGGGCCUUGGUUUUUUG",
    "measure name": "polymerase ribozyme fitness (log ratio)",
    "endpoint result": -7.55
  },
  {
    "construct sequence": "GUCCAAUCUGCCCUCAGAGCUCGAGAACAUCUUCGGAUGCAGAGGAGGCAGGCUUCGGUGCCGCGAUAGCGCCAACGUCCUCAACCUCCAAUGCAUCCCACCACAUGAUGAUGCCUGAAGAGCCUUGGUUUUUUG",
    "measure name": "polymerase ribozyme fitness (log ratio)",
    "endpoint result": -3.94
  },
  {
    "construct sequence": "GACCAAUCUCCCCUCAGAGCUCGAGAACAUCUUCGGAUGCAGAGGAGGCAGGCUUCGGUGGCACGAUAGCGCCAACGUCCUCAACCUCCAAUGCAUCCCACCACAUGAUGAUGCCUGAAGAGCCUUGGUUUUUUG",
    "measure name": "polymerase ribozyme fitness (log ratio)",
    "endpoint result": -1.49
  },
  {
    "construct sequence": "GACCAAUCUGCCCUCAGAGCUCGAGAUCAUCUUCGGAUGCAGAGGAUGCAGGCUUUGGUGGCGCGAUAGCGCCAACGUCCUCAACCUCCAAUGCAUCCCACCACAUGAUGAUGCCUGAAGAGCCUUGGUUUUUUG",
    "measure name": "polymerase ribozyme fitness (log ratio)",
    "endpoint result": -4.13
  },
  {
    "construct sequence": "GACCAAUCUGCCCUCAGAGCUCGAGAACAUCUUCGGAUGCAGAGGAGGCAGGCUUCGGUGGCGCGAUAGCGCCAACGUCCUCAACCUCAAAUGCAUCCCACCACAUGAUGGUGCCUGAAGAGCCUUGGUUUUUUG",
    "measure name": "polymerase ribozyme fitness (log ratio)",
    "endpoint result": -1.35
  },
  {
    "construct sequence": "GACCAAUCUGCCCUCAGAGCUUGAGAACAUCUUCGAAUGCAGAGGAGGCAGGCUUCGGUGGCGCGAUAGCGCCAAGGUCCUCAACCUCCAAUGCAUCCCACCACAUGAUGAUGCCUGAAGAGCCUUGGUUUUUUG",
    "measure name": "polymerase ribozyme fitness (log ratio)",
    "endpoint result": -5.14
  },
  {
    "construct sequence": "GACCAAUCCGCCCUCAGAGCUCGAGAACAUCUUCGGAUGCAGAGGAGGCAGGCUUCGGUGGCGAGAUAGCGCCUACGUCCUCAACCUCCAAUGCAUCCCACCACAUGAUGAGGCCUGAAGAGCCUUGGUUUUUUG",
    "measure name": "polymerase ribozyme fitness (log ratio)",
    "endpoint result": -6.76
  },
  {
    "construct sequence": "GACCAAUCUGCCCUCAGAGCUCGAGAACAUCUUCGGAUGCAGAGGAGGCAGGCGUUGGUGGCGCGAUAGCGCCAACGUCCUCAACCUCCAAUGCAUCCCACCACAUGAUGAUGCCUGAAGAGCCUUGGUUUUUUG",
    "measure name": "polymerase ribozyme fitness (log ratio)",
    "endpoint result": -4.05
  },
  {
    "construct sequence": "GACCAAUCUGCCCUCAGAGCUCGAGAACAUCUUCGGAUGCAGAGGAGGCUGGCUUCGGUGUCGCGAUAGCGCCAACGUCCUCAACUUCCAAUGCAUCCCACCACAUGAUGAUGCCUGAAGAGCCUUGGUUUUUUG",
    "measure name": "polymerase ribozyme fitness (log ratio)",
    "endpoint result": -1.34
  },
  {
    "construct sequence": "GACCAAUCUGCCCUCAGAGCUCGAGAACAUCUUCGGAUGCAGAGGAGCAAGGCUUUGGUGGCGCGAUAGCGCCAACGUCCUCAACCUCCAAUUCAUCCCACCACAUGAUGAUGCCUGAAGAGCCUUGGUUUUUUG",
    "measure name": "polymerase ribozyme fitness (log ratio)",
    "endpoint result": -1.8
  },
  {
    "construct sequence": "GACCAAUCUGCCCUCAGAGCUCGAGAACAUCUUCGGAUGCAGAGGAGGCAGGUUUCGGUGGCGCGAUAGCGCCAACGUCCUCAACCUCAAAUGCAUCCCACCACAUGAUGAUGCUUGAGGAGCCUUGGUUUUUUG",
    "measure name": "polymerase ribozyme fitness (log ratio)",
    "endpoint result": 0.658
  },
  {
    "construct sequence": "GACCAAUCUGCCCUCAGAGCUCGAGAACUUCUUCGGAUGCAGAGGAGGCAGGCUUCGGUGGCGCGAUAGCGCCAACGCCCUCAACCUCCAAUGCAUCCCACCACAUGAUGAUGCCUGAAGAGCCUUGGUUUUUUG",
    "measure name": "polymerase ribozyme fitness (log ratio)",
    "endpoint result": -1.79
  },
  {
    "construct sequence": "GACCGAUCUGCCAUCAGAGUUCGAGAACAUCUUCGGAUGCAGAGGAGGCAGGCUUCGGUGGCGCGAUAGCGCCAACGUCCUCAACCUCCAAUGCAUCCCACCACAUGAUGAUGCCUGAAGAGCCUUGGCUUUUUG",
    "measure name": "polymerase ribozyme fitness (log ratio)",
    "endpoint result": -4.45
  },
  {
    "construct sequence": "GACCAAUCUGCCCUCAGAGCUCGAGAACAUCUUCGGAUGCAGAGGAGGCGGGCUUCGGUGGCGCGAUAGCGCCAACGUCCUCAACCUCCAAUGCAUCCCACCACAUGAUGAUGCCUAAAGAGCCUUGGUUUUUUG",
    "measure name": "polymerase ribozyme fitness (log ratio)",
    "endpoint result": -1.18
  },
  {
    "construct sequence": "GACCAAUGUGCCCUCAGAGCUCGAGAACAUCUUCGGAUGCAGAGGAGGCAGGCUUCGGUGGCGCGAUAGCGCCAACGUCCUCAACCUCCAAUGCAUCCCACCAGAUGAUGAUGCCCGAAGUUCCUUGGCUUUUUG",
    "measure name": "polymerase ribozyme fitness (log ratio)",
    "endpoint result": -7.72
  },
  {
    "construct sequence": "GACCAAUCUGCCCUCAGAGCUCGAGAACAUCUUCGGAUGCAGAGCAGGCAGGCUUCGGUGGCGCGAUAGCGCCAACGUCCUCAACCUCCAAUGCAUCCCACCACAUGAUGAUGCAUGAAGAGCCUUGGUCUUUUG",
    "measure name": "polymerase ribozyme fitness (log ratio)",
    "endpoint result": -2.49
  },
  {
    "construct sequence": "GACCAAUCUGCCCUCAGAGCUCGAGAACAUCUUCGGAUGCAGAGGAGGCAGGCUUCGGUGUCGCGAUAGGGCCAACGUCCUCAACCUCCAAUGCAUCCCACCACAUGAUGAUGCCUGAAGAGCCUUGGUUUUUUG",
    "measure name": "polymerase ribozyme fitness (log ratio)",
    "endpoint result": -4.08
  }
]
